B1: PCMTD2 (parent)
chain: FFIRTSDSFDKFDFCEPSFVTGNC

Variants of: B1
test: protein stability index of a GFP-peptide fusion (GPS, HEK-293T) (PSI 1-6); higher = more stable;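 also: lentivirally expressed fusions sorted by FACS into six bins by GFP to DsRed ratio, PSI derived from sequencing read proportions per bin multiplied by bin number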
protocol conditions: c terminus: a fixed tail appended
# binarize protein stability index: threshold 3 inclusive, high side YES, low side NO

Check out these entries, answers already filled in.
• E16Q = NO
• P17A = NO
• F19T = NO
• N23D = NO

Incoming: Form field: protein stability index at least 3? Entry: `S18P`
Outgoing: NO

Incoming: Now consider `T5S` .
Outgoing: YES
